B1: SAT2 (parent)
chain: IIKKVAEVALDKGCSQFRLAVLDW

Variants of: B1
Assay: protein stability index of a GFP-peptide fusion (GPS, HEK-293T) (PSI 1-6); higher = more stable;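 also: lentivirally expressed fusions sorted by FACS into six bins by GFP to DsRed ratio, PSI derived from sequencing read proportions per bin multiplied by bin number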
Conditions: c terminus: a fixed tail appended
protein stability index values for the variants below.
Readout Type: protein stability index

Query Sequence	Readout Type	Measured Value
IIKKVAEVALDKGCSQFRLAVLCW [D23C]	protein stability index	3.04
IIKKVAEVALYKGCSQFRLAVLDW [D11Y]	protein stability index	2.01
IIKKVAEVALDKGCSQFLLAVLDW [R18L]	protein stability index	2.39
IIKKVAECALDKGCSQFRLAVLDW [V8C]	protein stability index	1.99
NIKKVAEVALDKGCSQFRLAVLDW [I1N]	protein stability index	1.38
IIKKVAENALDKGCSQFRLAVLDW [V8N]	protein stability index	2.01
IIKKVEEVALDKGCSQFRLAVLDW [A6E]	protein stability index	2.19
IIKKVAEVALDKGCSQFRLAVKDW [L22K]	protein stability index	2
IIKKVAMVALDKGCSQFRLAVLDW [E7M]	protein stability index	1.78
IIKKVAEVALFKGCSQFRLAVLDW [D11F]	protein stability index	3.5
IIKKVAEVALDKGCSQFRLAVLFW [D23F]	protein stability index	1.82
IIKKVAEVALDKGCQQFRLAVLDW [S15Q]	protein stability index	1.56
IIKKVAEVALDCGCSQFRLAVLDW [K12C]	protein stability index	3.59
IIKKVAEVALDKGNSQFRLAVLDW [C14N]	protein stability index	4.56
IIKKVAEVALDKCCSQFRLAVLDW [G13C]	protein stability index	2.45
CIKKVAEVALDKGCSQFRLAVLDW [I1C]	protein stability index	2.94
IIKKVAEVALDMGCSQFRLAVLDW [K12M]	protein stability index	2.73
IMKKVAEVALDKGCSQFRLAVLDW [I2M]	protein stability index	1.32
IIKKVAEQALDKGCSQFRLAVLDW [V8Q]	protein stability index	2.94
IIKKVAEVASDKGCSQFRLAVLDW [L10S]	protein stability index	1.05
IIKKVAEVALDKGCSQFRLAVLMW [D23M]	protein stability index	2.98
IIKKVAEVATDKGCSQFRLAVLDW [L10T]	protein stability index	3.02
IIKKVAEVALDKGCSQFRLAVLDR [W24R]	protein stability index	1.28
KIKKVAEVALDKGCSQFRLAVLDW [I1K]	protein stability index	2.02
IIKKVAEVALDKGCSQFRLAVLHW [D23H]	protein stability index	3.77
IIKKVAEVALDKGCSEFRLAVLDW [Q16E]	protein stability index	3.74
IIKKVALVALDKGCSQFRLAVLDW [E7L]	protein stability index	2.75
IIKKVAEVALDKGCSQFRAAVLDW [L19A]	protein stability index	1.61
IIKEVAEVALDKGCSQFRLAVLDW [K4E]	protein stability index	3.05
IIKKVAEVALDKGCSQDRLAVLDW [F17D]	protein stability index	3.24
IIKKVAEVFLDKGCSQFRLAVLDW [A9F]	protein stability index	2.31
IIKKVAEVALDKGCSQFRLAGLDW [V21G]	protein stability index	3.79
IIKKVAEVALDKGCSQFYLAVLDW [R18Y]	protein stability index	3.6
